# testSummary: Preemergence herbicidal activity (% control) against monocot weeds
# Type: in vivo
# conditionLabel: pre-emergence, 336 h; 4 lb./A., average, about two weeks after application; read-out: Herbicidal activity (% control), preemergence, monocots
One threshold, 70%, splits the recorded activity at 4483.4 g/ha values: lower ones are y, equal or higher ones are n.

As a guide, the following entries are already answered.
# chemSmiles, assignedCategory
records = [
    ("CN(C)CCOc1cc(Oc2ccc(C(F)(F)F)cc2Cl)ccc1[N+](=O)[O-]", "y"),
    ("CC(=O)CCOc1cc(Oc2ccc(C(F)(F)F)cc2Cl)ccc1[N+](=O)[O-]", "n"),
]

Regarding CCOc1cc(Oc2ccc(C(F)(F)F)cc2)ccc1[N+](=O)[O-] , kindly confirm whether its activity at 4483.4 g/ha is beneath 70%.
n

Regarding CCCN(CCC)c1cc(Oc2ccc(C(F)(F)F)cc2Cl)ccc1[N+](=O)[O-] , kindly confirm whether its activity at 4483.4 g/ha is beneath 70%.
y

Regarding CCC(=O)Nc1cc(Oc2ccc(C(F)(F)F)cc2Cl)ccc1[N+](=O)[O-] , kindly confirm whether its activity at 4483.4 g/ha is beneath 70%.
y

Regarding CCOCCOc1cc(Oc2ccc(C(F)(F)F)cc2Cl)ccc1[N+](=O)[O-] , kindly confirm whether its activity at 4483.4 g/ha is beneath 70%.
n

Regarding Cc1cc(Oc2ccc(C(F)(F)F)cc2C#N)ccc1[N+](=O)[O-] , kindly confirm whether its activity at 4483.4 g/ha is beneath 70%.
n

Regarding CS(=O)(=O)CCOc1cc(Oc2ccc(C(F)(F)F)cc2Cl)ccc1[N+](=O)[O-] , kindly confirm whether its activity at 4483.4 g/ha is beneath 70%.
y

---

# testSummary: Preemergence herbicidal activity (% control) against monocot weeds
# Format: in vivo
# conditionLabel: pre-emergence, 336 h; 10 lb./A., average, about two weeks after application; read-out: Herbicidal activity (% control), preemergence, monocots
So I've got a bunch of molecules here, and I need their activity at 11208.5 g/ha values.
Numbers only, in %.

Below: 5 molecules and their reported activity at 11208.5 g/ha.
# molecule, measured
measured = [
    ("CCCOc1cc(Oc2ccc(C(F)(F)F)cc2Cl)ccc1[N+](=O)[O-] [Example 5]", 97),
    ("CCOc1cc(Oc2ccc(C(F)(F)F)cc2C#N)ccc1[N+](=O)[O-] [Example 7]", 61),
    ("CCCOc1cc(Oc2ccc(C(F)(F)F)cc2C#N)ccc1[N+](=O)[O-] [Example 8]", 81),
    ("CCOc1cc(Oc2ccc(C(F)(F)F)cc2Cl)ccc1[N+](=O)[O-] [Example 3]", 99),
    ("COc1cc(Oc2ccc(C(F)(F)F)cc2Cl)ccc1[N+](=O)[O-] [Example 2]", 97),
]

Could I get activity at 11208.5 g/ha for every one of these entries?
1. Cc1cc(Oc2ccc(C(F)(F)F)cc2C#N)ccc1[N+](=O)[O-] [Example 9]
2. CCOc1cc(Oc2ccc(C(F)(F)F)cc2)ccc1[N+](=O)[O-] [Example 1]
3. CCCCOc1cc(Oc2ccc(C(F)(F)F)cc2Cl)ccc1[N+](=O)[O-] [Example 6]

1: 99; 2: 42; 3: 65

---

# testSummary: Preemergence herbicidal activity (% control) against monocot weeds
# Assay type: in vivo
# conditionLabel: pre-emergence, 336 h; 4 lb./A., average, about two weeks after application; read-out: Herbicidal activity (% control), preemergence, monocots
Category scheme (activity at 4483.4 g/ha): bin A = under 80%, bin B = from 80% up to 90%, bin C = 90% and over

As a guide, the following entries are already answered.
# compound, assignedCategory
measured = [
    ("C#CCCOc1cc(Oc2ccc(C(F)(F)F)cc2Cl)ccc1[N+](=O)[O-]", "bin A"),
    ("CC(=O)C(C)Oc1cc(Oc2ccc(C(F)(F)F)cc2Cl)ccc1[N+](=O)[O-] (stereo not shown)", "bin B"),
    ("CNC(=O)Oc1cc(Oc2ccc(C(F)(F)F)cc2Cl)ccc1[N+](=O)[O-]", "bin A"),
    ("O=[N+]([O-])c1ccc(Oc2ccc(C(F)(F)F)cc2Cl)cc1NCCO", "bin A"),
    ("O=[N+]([O-])c1ccc(Oc2ccc(C(F)(F)F)cc2Cl)cc1OCCO", "bin C"),
    ("C=CCOc1cc(Oc2ccc(C(F)(F)F)cc2Cl)ccc1[N+](=O)[O-]", "bin B"),
    ("O=C(CCl)Nc1cc(Oc2ccc(C(F)(F)F)cc2Cl)ccc1[N+](=O)[O-]", "bin A"),
    ("O=[N+]([O-])c1ccc(Oc2ccc(C(F)(F)F)cc2Cl)cc1OCC(O)CO (stereo not shown)", "bin A"),
    ("CC(C)Oc1cc(Oc2ccc(C(F)(F)F)cc2Cl)ccc1[N+](=O)[O-]", "bin C"),
]

# next compound below
Class label required: CCN(CCO)c1cc(Oc2ccc(C(F)(F)F)cc2Cl)ccc1[N+](=O)[O-]
bin B

---

# testSummary: Postemergence herbicidal activity (% control) against monocot weeds
# Assay type: in vivo
# conditionLabel: post-emergence, 336 h; 4 lb./A., average, about two weeks after application; read-out: Herbicidal activity (% control), postemergence, monocots
So I've got a bunch of compounds here, and I need their activity at 4483.4 g/ha values.
Answers are plain numbers, in %.

Below: 3 compounds and their reported activity at 4483.4 g/ha.
# compound, activity at 4483.4 g/ha (%)
records = [
    ("CCOCCOc1cc(Oc2ccc(C(F)(F)F)cc2Cl)ccc1[N+](=O)[O-] [Example 16]", 77),
    ("CSCCOc1cc(Oc2ccc(C(F)(F)F)cc2Cl)ccc1[N+](=O)[O-] [Example 40]", 64),
    ("CCCCOc1cc(Oc2ccc(C(F)(F)F)cc2Cl)ccc1[N+](=O)[O-] [Example 6]", 91),
]

Could I get activity at 4483.4 g/ha for every one of these entries?
1. CCN(CCO)c1cc(Oc2ccc(C(F)(F)F)cc2Cl)ccc1[N+](=O)[O-] [Example 54]
2. O=C(O)COc1cc(Oc2ccc(C(F)(F)F)cc2Cl)ccc1[N+](=O)[O-] [Example 23]
3. CCN(CC)c1cc(Oc2ccc(C(F)(F)F)cc2Cl)ccc1[N+](=O)[O-] [Example 21]
4. CCC(=O)Nc1cc(Oc2ccc(C(F)(F)F)cc2Cl)ccc1[N+](=O)[O-] [Example 34]

1. 79
2. 82
3. 74
4. 32

---

# testSummary: Postemergence herbicidal activity (% control) against monocot weeds
# Format: in vivo
# conditionLabel: post-emergence, 336 h; 4 lb./A., average, about two weeks after application; read-out: Herbicidal activity (% control), postemergence, monocots
So I've got a bunch of molecules here, and I need their activity at 4483.4 g/ha values.
One number for each entry, in %.

# molecule, unitsOfMeasure, measured
rows = [
    ("CC(Oc1cc(Oc2ccc(C(F)(F)F)cc2Cl)ccc1[N+](=O)[O-])C(N)=O (centres unmarked) [Example 51]", "%", 75),
]

Could I get activity at 4483.4 g/ha for every one of these entries?
1. CCOC(=O)C(C)Oc1cc(Oc2ccc(C(F)(F)F)cc2Cl)ccc1[N+](=O)[O-] (centres unmarked) [Example 26]
2. CC(Oc1cc(Oc2ccc(C(F)(F)F)cc2Cl)ccc1[N+](=O)[O-])C(=O)N(C)C (centres unmarked) [Example 53]
3. CCCOc1cc(Oc2ccc(C(F)(F)F)cc2Cl)ccc1[N+](=O)[O-] [Example 5]
4. COc1cc(Oc2ccc(C(F)(F)F)cc2Cl)ccc1[N+](=O)[O-] [Example 2]

1. 99
2. 79
3. 99
4. 99

---

# testSummary: Preemergence herbicidal activity (% control) against monocot weeds
# Type: in vivo
# conditionLabel: pre-emergence, 336 h; 4 lb./A., average, about two weeks after application; read-out: Herbicidal activity (% control), preemergence, monocots
One threshold, 80%, splits the recorded activity at 4483.4 g/ha values: lower ones are condition met, equal or higher ones are condition not met.

As a guide, the following entries are already answered.
# molecule, assignedCategory
data = [
    ("CN(CCO)c1cc(Oc2ccc(C(F)(F)F)cc2Cl)ccc1[N+](=O)[O-] [Example 43]", "condition met"),
    ("Nc1cc(Oc2ccc(C(F)(F)F)cc2Cl)ccc1[N+](=O)[O-] [Example 27]", "condition met"),
    ("O=[N+]([O-])c1ccc(Oc2ccc(C(F)(F)F)cc2Cl)cc1OCC1CO1 (centres unmarked) [Example 38]", "condition met"),
]

Regarding CSCCOc1cc(Oc2ccc(C(F)(F)F)cc2Cl)ccc1[N+](=O)[O-] [Example 40] , kindly confirm whether its activity at 4483.4 g/ha is beneath 80%.
condition not met

Regarding CCSC(=O)Nc1cc(Oc2ccc(C(F)(F)F)cc2Cl)ccc1[N+](=O)[O-] [Example 45] , kindly confirm whether its activity at 4483.4 g/ha is beneath 80%.
condition met
